Assay: Protein binding
Type: in vitro ADME
Settings: In vitro rat plasma protein binding
From the text: Supplement media-1.zip/Protein_Binding.csv, table | column: fu; perc_bound; perc_free; perc_recovered
quantity_kind: perc_recovered (%)
The figure you give is taken to be in %; do not add the unit.

Please supply the value of reported perc_recovered for the item CNCc1cc(-c2cc3c(N[C@@H](c4ccc5c(c4)S(=O)(=O)CCC5)C(C)C)ncnc3[nH]2)co1 [ASAP-0011176]
95.34

Give perc_recovered for the following compound: CC(C)[C@H](Nc1ncnc2[nH]c(-c3cnn(C)c3C#N)cc12)c1ccc2c(n1)OCCO2 [ASAP-0010715]
97.27

Give perc_recovered for the following compound: C[C@H](C(=O)O)[C@@H](NC(=O)c1ncnc2[nH]ccc12)c1ccc(Br)cc1 [ASAP-0014722]
93.34

###

Answer each item with its documented perc_remaining.
test: Hepatic microsomal stability, HLM; assay type: in vitro ADME, human; conditions: In vitro human liver microsomal stability
API: value field is a number in %; no unit string.

Read the entry Cn1ncc(-c2cc3c(N[C@@H](c4ccc5c(c4)OCCO5)C(C)(C)C)ncnc3[nH]2)c1C#N (racemic) and write its reported perc_remaining.
22.0

Check the records and state perc_remaining for CNCc1cc(-c2cc3c(N[C@@H](c4ccc5c(c4)S(=O)(=O)CCC5)C(C)C)ncnc3[nH]2)co1 [ASAP-0011176]
10.0

Identify perc_remaining associated with the molecule CC(C)(C)[C@H](Nc1ncnc2[nH]c(-c3cnn(CC(N)=O)c3)cc12)c1ccc2c(n1)OCCO2 (single isomer, unassigned) [ASAP-0011159]
64.0

Entry CCNC(=O)c1cc2c(N[C@H](c3ccc4c(c3)S(=O)(=O)CCC4)C(C)C)ncnc2[nH]1 [ASAP-0012325] needs its perc_remaining filled in; supply it.
17.0

###

experiment: Hepatic microsomal stability, MLM; assay type: in vitro ADME; conditions: In vitro mouse liver microsomal stability
quantity_kind: log10 of t_half (log10 of the value in min)
Scale type: logarithmic (base 10). Underlying t_half unit: min.

Specify measured log10 of t_half for O=C(Nc1cccc2c(C(=O)N[C@H]3c4ccccc4C[C@H]3C(=O)O)c[nH]c12)NC1CC1 (racemic) .
2.66

Provide one value: measured log10 of t_half of CC(C)[C@@H](Nc1ncnc2[nH]c(-c3cnn(C)c3)cc12)c1ccc2c(c1)S(=O)(=O)CCC2 [ASAP-0008678]
1.03

Tell us which log10 of t_half value is on record for CNCc1cc(-c2cc3c(N[C@@H](c4ccc5c(c4)S(=O)(=O)CCC5)C(C)C)ncnc3[nH]2)co1 [ASAP-0011176]
1.49

Determine from records and report log10 of t_half for CCNC(=O)c1cc2c(N[C@@H](c3ccc4c(c3)S(=O)(=O)CCO4)C(C)C)ncnc2[nH]1 (racemic)
1.82

Please report the measured log10 of t_half for CNC(=O)c1cc2c(N[C@@H](c3ccc4c(c3)OCCO4)C(C)C)ncnc2[nH]1
1.48

Identify the reported log10 of t_half for the following entry. CC(C)[C@H](Nc1ncnc2[nH]c(C(=O)N[C@@H]3CCN(C)C3)cc12)c1ccc2c(c1)S(=O)(=O)CCC2
2.81

# return recorded log10 of t_half for entry CC(C)[C@@H](Nc1ncnc2[nH]c(-c3cnn(CC(=O)N(C)C)c3)cc12)c1ccc2c(c1)S(=O)(=O)CCC2 (racemic) [ASAP-0008668]
1.39
